Measured values drawn from ChEMBL document CHEMBL4665638 for this set.

Entries and their AUC at 6 h values follow.
- TEST SUMMARY: AUC in rat at 5 mg/kg, po measured for 6 hrs
- Assay type: ADME, organism-based
- Design: time 6 hrs, dose 5 mg/kg
- CONDITIONS USED: in vivo
ENDPOINT NAME: AUC at 6 h (µM·h)

INSERT INTO results (structure, u, test_value) VALUES
  ('C=C(C)[C@@H]1CC[C@]2(CNCCCN3CCS(=O)(=O)CC3)CC[C@]3(C)[C@H](CC[C@@H]4[C@@]5(C)CC=C(c6ccc(C(=O)O)cc6)C(C)(C)[C@@H]5CC[C@]43C)[C@@H]12', 'µM·h', 1.71),
  ('C=C(C)[C@@H]1CC[C@]2(NCCN3CCS(=O)(=O)CC3)CC[C@]3(C)[C@H](CC[C@@H]4[C@@]5(C)CC=C(c6ccc(C(=O)O)c(F)c6)C(C)(C)[C@@H]5CC[C@]43C)[C@@H]12', 'µM·h', 25.5),
  ('C=C(C)[C@@H]1CC[C@]2(NCCN3CCS(=O)(=O)CC3)CC[C@]3(C)[C@H](CC[C@@H]4[C@@]5(C)CC=C(c6ccc(C(=O)O)cc6)C(C)(C)[C@@H]5CC[C@]43C)[C@@H]12', 'µM·h', 14.2),
  ('C=C(C)[C@@H]1CC[C@]2(C(=O)NCCN3CCS(=O)(=O)CC3)CC[C@]3(C)[C@H](CC[C@@H]4[C@@]5(C)CC=C(c6ccc(C(=O)O)cc6)C(C)(C)[C@@H]5CC[C@]43C)[C@@H]12', 'µM·h', 3.99);

====

- TEST SUMMARY: Volume of distribution at steady state in cynomolgus monkey
- Type: ADME, Macaca fascicularis
- CONDITIONS USED: in vivo, read-out: Vdss
ENDPOINT NAME: Vd (L/kg)

INSERT INTO measurements (compound, endpoint_name, test_value) VALUES
  ('C=C(C)[C@@H]1CC[C@]2(NCCN3CCS(=O)(=O)CC3)CC[C@]3(C)[C@H](CC[C@@H]4[C@@]5(C)CC=C(c6ccc(C(=O)O)cc6)C(C)(C)[C@@H]5CC[C@]43C)[C@@H]12 [BMS-955176]', 'Vd', 0.36);

====

- TEST SUMMARY: Binding affinity to wild type HIV-1 NL4-3 CA-SP1 cleavage site of Gag-Pol protein assessed as inhibition of HIV-1 maturation
- Set-up: species or system Human immunodeficiency virus 1
ENDPOINT NAME: EC50

INSERT INTO assay_data (structure, test_value) VALUES
  ('C=C(C)[C@@H]1CC[C@]2(C(=O)O)CC[C@]3(C)[C@H](CC[C@@H]4[C@@]5(C)CC=C(c6ccc(C(=O)O)cc6Cl)C(C)(C)[C@@H]5CC[C@]43C)[C@@H]12', '114 nM'),
  ('C=C(C)[C@@H]1CC[C@]2(NCCN3CCS(=O)(=O)CC3)CC[C@]3(C)[C@H](CC[C@@H]4[C@@]5(C)CC=C(c6ccc(C(=O)O)c(F)c6)C(C)(C)[C@@H]5CC[C@]43C)[C@@H]12', '3 nM'),
  ('C=C(C)[C@@H]1CC[C@]2(C(=O)NCCN3CCS(=O)(=O)CC3)CC[C@]3(C)[C@H](CC[C@@H]4[C@@]5(C)CC=C(c6ccc(C(=O)O)cc6)C(C)(C)[C@@H]5CC[C@]43C)[C@@H]12', '2 nM'),
  ('C=C(C)[C@@H]1CC[C@]2(C(=O)NCCC(C)C)CC[C@]3(C)[C@H](CC[C@@H]4[C@@]5(C)CC=C(c6ccc(C(=O)O)cc6)C(C)(C)[C@@H]5CC[C@]43C)[C@@H]12', '47 nM'),
  ('C=C(C)[C@@H]1CC[C@]2(C(=O)O)CC[C@]3(C)[C@H](CC[C@@H]4[C@@]5(C)CC=C(c6ccc(C(=O)O)c(C(=O)O)c6)C(C)(C)[C@@H]5CC[C@]43C)[C@@H]12', '38 nM'),
  ('C=C(C)[C@@H]1CC[C@]2(C(=O)NCCNC(C)=O)CC[C@]3(C)[C@H](CC[C@@H]4[C@@]5(C)CC=C(c6ccc(C(=O)O)cc6)C(C)(C)[C@@H]5CC[C@]43C)[C@@H]12', '5 nM'),
  ('C=C(C)[C@@H]1CC[C@]2(C(=O)NCCC(=O)O)CC[C@]3(C)[C@H](CC[C@@H]4[C@@]5(C)CC=C(c6ccc(C(=O)O)cc6)C(C)(C)[C@@H]5CC[C@]43C)[C@@H]12', '37 nM'),
  ('C=C(C)[C@@H]1CC[C@]2(C(=O)N[C@@H](CN(C)C)C(=O)O)CC[C@]3(C)[C@H](CC[C@@H]4[C@@]5(C)CC=C(c6ccc(C(=O)O)cc6)C(C)(C)[C@@H]5CC[C@]43C)[C@@H]12', '46 nM'),
  ('C=C(C)[C@@H]1CC[C@]2(C(=O)O)CC[C@]3(C)[C@H](CC[C@@H]4[C@@]5(C)CC=C(c6ccc(C(=O)O)cc6C)C(C)(C)[C@@H]5CC[C@]43C)[C@@H]12', '613 nM'),
  ('C=C(C)[C@@H]1CC[C@]2(C(=O)O)CC[C@]3(C)[C@H](CC[C@@H]4[C@@]5(C)CC=C(c6ccc(C(=O)O)cc6F)C(C)(C)[C@@H]5CC[C@]43C)[C@@H]12', '55 nM'),
  ('C=C(C)[C@@H]1CC[C@]2(C(=O)O)CC[C@]3(C)[C@H](CC[C@@H]4[C@@]5(C)CC=C(c6cccc(C(=O)O)c6)C(C)(C)[C@@H]5CC[C@]43C)[C@@H]12', '> 8000 nM'),
  ('C=C(C)[C@@H]1CC[C@]2(C(=O)NCCN(CC)CC(=O)O)CC[C@]3(C)[C@H](CC[C@@H]4[C@@]5(C)CC=C(c6ccc(C(=O)O)cc6)C(C)(C)[C@@H]5CC[C@]43C)[C@@H]12', '3 nM');

====

- TEST SUMMARY: Binding affinity to HIV-1 CA-SP1 cleavage site of Gag-Pol protein harboring V370A mutant assessed as inhibition of HIV-1 maturation
- Parameters: species or system Human immunodeficiency virus 1
pEC50: −log10 of the molar value.
Classification field: enter Criterion met for pEC50 values not below 7, Criterion not met for values below it.

INSERT INTO assay_data (structure, classification) VALUES
  ('C=C(C)[C@@H]1CC[C@]2(C(=O)O)CC[C@]3(C)[C@H](CC[C@@H]4[C@@]5(C)CC=C(c6ccc(C(=O)O)c(C(=O)O)c6)C(C)(C)[C@@H]5CC[C@]43C)[C@@H]12', 'Criterion not met'),
  ('C=C(C)[C@@H]1CC[C@]2(C(=O)O)CC[C@]3(C)[C@H](CC[C@@H]4[C@@]5(C)CC=C(c6ccc(C(=O)O)cc6C)C(C)(C)[C@@H]5CC[C@]43C)[C@@H]12', 'Criterion not met'),
  ('C=C(C)[C@@H]1CC[C@]2(C(=O)NCCN3CCS(=O)(=O)CC3)CC[C@]3(C)[C@H](CC[C@@H]4[C@@]5(C)CC=C(c6ccc(C(=O)O)cc6)C(C)(C)[C@@H]5CC[C@]43C)[C@@H]12', 'Criterion met'),
  ('C=C(C)[C@@H]1CC[C@]2(C(=O)N[C@@H](CN(C)C)C(=O)O)CC[C@]3(C)[C@H](CC[C@@H]4[C@@]5(C)CC=C(c6ccc(C(=O)O)cc6)C(C)(C)[C@@H]5CC[C@]43C)[C@@H]12', 'Criterion not met'),
  ('C=C(C)[C@@H]1CC[C@]2(C(=O)O)CC[C@]3(C)[C@H](CC[C@@H]4[C@@]5(C)CC=C(c6ccc(C(=O)O)cc6F)C(C)(C)[C@@H]5CC[C@]43C)[C@@H]12', 'Criterion not met');

====

- TEST SUMMARY: Oral bioavailability in cynomolgus monkey
- Assay type: ADME, organism-based, Macaca fascicularis
- CONDITIONS USED: in vivo
ENDPOINT NAME: bioavailability

INSERT INTO assay_data (structure, endpoint_name, test_value) VALUES
  ('C=C(C)[C@@H]1CC[C@]2(NCCN3CCS(=O)(=O)CC3)CC[C@]3(C)[C@H](CC[C@@H]4[C@@]5(C)CC=C(c6ccc(C(=O)O)cc6)C(C)(C)[C@@H]5CC[C@]43C)[C@@H]12', 'bioavailability', '4%');

====

- TEST SUMMARY: Binding affinity to HIV-1 CA-SP1 cleavage site of Gag-Pol protein harboring V370A mutant assessed as inhibition of HIV-1 maturation
- Set-up: species or system Human immunodeficiency virus 1
Entries and their EC50 values follow.
ENDPOINT NAME: EC50

INSERT INTO measurements (structure, endpoint_name, test_value) VALUES
  ('C=C(C)[C@@H]1CC[C@]2(C(=O)O)CC[C@]3(C)[C@H](CC[C@@H]4[C@@]5(C)CC=C(c6ccc(C(=O)O)cc6Cl)C(C)(C)[C@@H]5CC[C@]43C)[C@@H]12', 'EC50', '> 4000 nM'),
  ('C=C(C)[C@@H]1CC[C@]2(C(=O)NCCC(=O)O)CC[C@]3(C)[C@H](CC[C@@H]4[C@@]5(C)CC=C(c6ccc(C(=O)O)cc6)C(C)(C)[C@@H]5CC[C@]43C)[C@@H]12', 'EC50', '427 nM'),
  ('C=C(C)[C@@H]1CC[C@]2(C(=O)NCCN(CC)CC(=O)O)CC[C@]3(C)[C@H](CC[C@@H]4[C@@]5(C)CC=C(c6ccc(C(=O)O)cc6)C(C)(C)[C@@H]5CC[C@]43C)[C@@H]12', 'EC50', '9 nM');
